The reported numbers originate from the supplement of paper PMC8728848.

target: Gal3S6S(b1-4)GlcNAc6S; assay: glycan array binding signal (z-score within array); higher = stronger binding; conditions: glycan notation: IUPAC condensed, linker removed
Shown is part of a subset that was picked to be rich in the strongest signals.
value kind: glycan array binding signal (z-score)
Reply with the value as a number alone.

>>> readout_value("MD-2 (Homo sapiens) (protein) MLPFLFFSTLFSSIFTEAQKQYWVCNSSDASISYTYCDKMQYPISINVNPCIELKGSKGLLHIFYIPRRDLKQLYFNLYITVNTMNLPKRKEVICRGSDDDYSFCRALKGETVNTTISFSFKGIKFSKGKYKCVVEAISGSPEEMLFCLEFVILHQPNSN")
6.6
>>> readout_value("Mcg Light Chain Dimer (Homo sapiens), Q6PIK1 (protein) MAGFPLLLTLLTHCAGSWGQSLLTQPPSVSGTPGQRVTISCSGSSSNIGINYVYWYQQIPGTAPKLLISTNDQRPSGVPDRFSGSKSGTSASLAIGGLRSEDEAHYYCAAWDDSMSGPGYAFGTGTKVTVLRQPKANPTVTLFPPSSEELQANKATLVCLISDFYPGAVTVAWKADGSPVKAGVETTKPSKQSNNKYAASSYLSLTPEQWKSHRSYSCQVTHEGSTVEKTVAPTECS")
5.67
>>> readout_value("OGAA (protein) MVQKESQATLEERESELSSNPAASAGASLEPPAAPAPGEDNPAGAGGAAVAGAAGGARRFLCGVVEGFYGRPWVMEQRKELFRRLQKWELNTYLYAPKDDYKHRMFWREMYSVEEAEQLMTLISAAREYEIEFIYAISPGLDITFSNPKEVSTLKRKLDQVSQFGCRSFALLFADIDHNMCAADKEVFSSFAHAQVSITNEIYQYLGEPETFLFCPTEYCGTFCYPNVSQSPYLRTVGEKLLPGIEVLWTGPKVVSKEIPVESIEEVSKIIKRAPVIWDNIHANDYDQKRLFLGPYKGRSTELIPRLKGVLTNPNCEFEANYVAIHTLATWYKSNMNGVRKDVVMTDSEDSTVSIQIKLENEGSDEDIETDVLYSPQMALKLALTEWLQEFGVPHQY")
-0.045
>>> readout_value("FBG3 (Homo sapiens), Q9H4M3 (protein) MAVGNINELPENILLELFTHVPARQLLLNCRLVCSLWRDLIDLVTLWKRKCLREGFITEDWDQPVADWKIFYFLRSLHRNLLHNPCAEEGFEFWSLDVNGGDEWKVEDLSRDQRKEFPNDQVKKYFVTSYYTCLKSQVVDLKAEGYWEELMDTTRPDIEVKDWFAARPDCGSKYQLCVQLLSSAHAPLGTFQPDPATIQQKSDAKWREVSHTFSNYPPGVRYIWFQHGGVDTHYWAGWYGPRVTNSSITIGPPLP")
7.93
>>> readout_value("EULS2 M2 (Oryza sativa) (protein) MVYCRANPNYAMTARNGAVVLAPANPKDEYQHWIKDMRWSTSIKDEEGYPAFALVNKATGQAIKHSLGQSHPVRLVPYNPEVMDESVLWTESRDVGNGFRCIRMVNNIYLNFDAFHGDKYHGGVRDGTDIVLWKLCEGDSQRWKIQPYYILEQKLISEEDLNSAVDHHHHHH")
13.3

(Q) Can you look up the measured glycan array binding signal (z-score) of AICL (Homo sapiens), Q92478 (protein) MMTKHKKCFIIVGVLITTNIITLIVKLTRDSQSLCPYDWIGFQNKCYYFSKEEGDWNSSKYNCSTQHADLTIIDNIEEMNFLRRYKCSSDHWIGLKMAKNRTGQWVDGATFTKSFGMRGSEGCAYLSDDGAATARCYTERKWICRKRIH for me?
(A) 5.26

(Q) Can you look up the measured glycan array binding signal (z-score) of CLL-1 (Homo sapiens) (protein) MWIDFFTYSSMSEEVTYADLQFQNSSEMEKIPEIGKFGEKAPPAPSHVWRPAALFLTLLCLLLLIGLGVLASMFHVTLKIEMKKMNKLQNISEELQRNISLQLMSNMNISNKIRNLSTTLQTIATKLCRELYSKEQEHKCKPCPRRWIWHKDSCYFLSDDVQTWQESKMACAAQNASLLKINNKNALEFIKSQSRSYDYWLGLSPEEDSTRGMRVDNIINSSAWVIRNAPDLNNMYCGYINRLYVQYYHCTYKKRMICEKMANPVQLGSTYFREA for me?
(A) 3.91

(Q) Can you look up the measured glycan array binding signal (z-score) of Morniga (Morus nigra) (protein) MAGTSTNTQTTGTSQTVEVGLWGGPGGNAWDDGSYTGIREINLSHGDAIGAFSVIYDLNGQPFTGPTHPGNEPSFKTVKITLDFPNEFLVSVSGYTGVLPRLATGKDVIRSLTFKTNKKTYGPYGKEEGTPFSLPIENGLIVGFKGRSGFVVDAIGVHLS for me?
(A) -0.316

(Q) Can you look up the measured glycan array binding signal (z-score) of FBG5 (Homo sapiens), Q8NI29 (protein) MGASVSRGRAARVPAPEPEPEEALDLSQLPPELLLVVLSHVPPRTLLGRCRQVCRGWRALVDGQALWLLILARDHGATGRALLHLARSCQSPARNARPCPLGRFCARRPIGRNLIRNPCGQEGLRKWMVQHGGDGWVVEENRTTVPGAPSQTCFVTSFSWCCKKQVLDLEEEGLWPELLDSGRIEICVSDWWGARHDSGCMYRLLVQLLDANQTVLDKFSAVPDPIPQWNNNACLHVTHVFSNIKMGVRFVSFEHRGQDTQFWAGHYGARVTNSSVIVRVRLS for me?
(A) 2.32

(Q) Can you look up the measured glycan array binding signal (z-score) of FBG4 (Homo sapiens), Q96EF6 (protein) MGARLSRRRLPADPSLALDALPPELLVQVLSHVPPRSLVTRCRPVCRAWRDIVDGPTVWLLQLARDRSAEGRALYAVAQRCLPSNEDKEEFPLCALARYCLRAPFGRNLIFNSCGEQGFRGWEVEHGGNGWAIEKNLTPVPGAPSQTCFVTSFEWCSKRQLVDLVMEGVWQELLDSAQIEICVADWWGARENCGCVYQLRVRLLDVYEKEVVKFSASPDPVLQWTERGCRQVSHVFTNFGKGIRYVSFEQYGRDVSSWVGHYGALVTHSSVRVRIRLS for me?
(A) 6.42
